Biological target: recombinant Mcl-1 (residues 172-327) (Homo sapiens)
Construct: 14 nM recombinant Mcl-1 (residues 172-327) were added to assay buffer
Experiment: Bak peptide binding assay: fluorescence polarization anisotropy competition (FITC-Bak BH3 peptide)
Conditions: Ki For Inhibition of Mcl-I Protein, Table 2, binned range; 10 nM FITC-Bak, 14 nM Mcl-1; Ki converted from IC50

smiles-string | tgt | Ki
CS(=O)(=O)NC(=O)c1c(CCCOc2cccc3ccccc23)c2cccc3c2n1CCC3 | recombinant Mcl-1 (residues 172-327) (Homo sapiens) | 1000 to 9990 nM
O=C(O)c1c(CCCOc2cccc3c2CCCC3)c2cccc3c2n1CCS3 | recombinant Mcl-1 (residues 172-327) (Homo sapiens) | 101 to 299 nM
Cc1cc(OCCCc2c(C(=O)O)n3c4c(cccc24)CCC3)cc(C)c1Cl | recombinant Mcl-1 (residues 172-327) (Homo sapiens) | 101 to 299 nM
CS(=O)(=O)NC(=O)c1c(CCCOc2cccc3ccccc23)c2cccc3c2n1CCS3 | recombinant Mcl-1 (residues 172-327) (Homo sapiens) | 1000 to 9990 nM
CS(=O)(=O)NC(=O)c1c(CCCOc2cccc3ccccc23)c2cccc3c2n1CCCS3 | recombinant Mcl-1 (residues 172-327) (Homo sapiens) | 501 to 999 nM
O=C(O)c1c(CCCOc2cccc3ccccc23)c2cccc3c2n1CCO3 | recombinant Mcl-1 (residues 172-327) (Homo sapiens) | 101 to 299 nM
O=C(O)c1c(CCOc2cccc3ccccc23)c2cccc3c2n1CCS3 | recombinant Mcl-1 (residues 172-327) (Homo sapiens) | 1000 to 9990 nM

###

Target: recombinant Mcl-1 (residues 172-327) (Homo sapiens, UniProt Q07820)
Construct: 14 nM recombinant Mcl-1 (residues 172-327) were added to assay buffer
Sequence (Q07820 172-327): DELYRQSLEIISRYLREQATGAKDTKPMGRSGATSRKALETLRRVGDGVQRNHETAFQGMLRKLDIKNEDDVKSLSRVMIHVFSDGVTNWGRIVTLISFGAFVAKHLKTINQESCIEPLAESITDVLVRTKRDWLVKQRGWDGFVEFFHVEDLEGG
Assay: Bak peptide binding assay: fluorescence polarization anisotropy competition (FITC-Bak BH3 peptide)
Conditions: Table 3; 10 nM FITC-Bak, 14 nM Mcl-1; Ki converted from IC50; read-out: Ki Mcl-1
Protocol: Bak Peptide Binding Assay Compound affinity was measured using a fluorescence polarization anisotropy competition assay. Anisotropy measurements were carried out in 384-well, black, flat-bottom plates (Greiner Bio-one, Monroe, N.C., USA). […] Compounds are diluted in DMSO in a 10-point, 3-fold serial dilution scheme. […] Anisotropy is measured at excitation wavelength 480 nm and emission wavelength 535 nm using an EnVision Multi-label plate reader (PerkinElmer, Wellesley, Mass., USA). […]
pKi: −log10 of the molar value.
Let's look at some compounds and their measured pKi.

smiles-string | pKi
Cc1cc(OCCCc2c(C(=O)O)n3c4c(cccc24)SCC3)cc(C)c1Cl | 7.15
O=C(O)c1c(CCCOc2ccc(Cl)c3ccccc23)c2cccc3c2n1CCS3 | 6.70
Cc1cc(OCCCc2c(C(=O)O)n3c4c(c(Cl)ccc24)OCC3)cc(C)c1Cl | 8.05
Cc1cc(OCCCc2c(C(=O)O)n3c4c(cccc24)SCCC3)cc(C)c1Cl | 7.40

###

Target: recombinant Mcl-1 (residues 172-327) (Homo sapiens, UniProt Q07820)
Construct: 14 nM recombinant Mcl-1 (residues 172-327) were added to assay buffer
Test: Bak peptide binding assay: fluorescence polarization anisotropy competition (FITC-Bak BH3 peptide)
Settings: Ki Mcl-1, Table 3; 10 nM FITC-Bak, 14 nM Mcl-1; Ki converted from IC50
pKi: −log10 of the molar value.

smiles-string | tgt | pKi
O=C(O)c1c(CCCOc2cccc3ccccc23)c2cccc3c2n1CCS3 | recombinant Mcl-1 (residues 172-327) (Homo sapiens, UniProt Q07820) | 6.97

###

Biological target: recombinant Mcl-1 (residues 172-327) (Homo sapiens, UniProt Q07820)
Construct: 14 nM recombinant Mcl-1 (residues 172-327) were added to assay buffer
Assay: Bak peptide binding assay: fluorescence polarization anisotropy competition (FITC-Bak BH3 peptide)
Settings: Ki For Inhibition of Mcl-I Protein, Table 2, binned range; 10 nM FITC-Bak, 14 nM Mcl-1; Ki converted from IC50
pKi: −log10 of the molar value.
Let's look at some compounds and their measured pKi.
reported-property: pKi

compound | reported-property | measurement
Cc1cc(OCCCc2c(C(=O)O)n3c4c(cccc24)SCC3)cc(C)c1Cl [Example 13] | pKi | ≥ 7.00
O=C(O)c1c(CCCOc2cccc3ccccc23)c2cccc3c2n1CCC[S+]3[O-] (stereo not drawn) [Example 20] | pKi | ≥ 7.00
Cc1cc(OCCc2c(C(=O)O)n3c4c(cccc24)SCC3)cc(C)c1Cl [Example 3] | pKi | 5.00 to 6.00
